assayTarget: UniProt Q309Z2
Sequence (Q309Z2 entry or part of it): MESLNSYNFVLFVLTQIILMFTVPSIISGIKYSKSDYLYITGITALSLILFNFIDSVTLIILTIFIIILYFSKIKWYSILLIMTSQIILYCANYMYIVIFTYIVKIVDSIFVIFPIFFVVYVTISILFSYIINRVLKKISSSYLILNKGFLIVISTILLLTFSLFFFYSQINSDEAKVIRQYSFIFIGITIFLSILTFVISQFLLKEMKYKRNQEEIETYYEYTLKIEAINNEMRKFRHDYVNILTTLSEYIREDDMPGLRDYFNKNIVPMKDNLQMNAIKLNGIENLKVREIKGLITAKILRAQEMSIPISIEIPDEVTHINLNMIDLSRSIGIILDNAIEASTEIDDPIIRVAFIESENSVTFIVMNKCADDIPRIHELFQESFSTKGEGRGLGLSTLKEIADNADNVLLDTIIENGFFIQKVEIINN
assayMethodText: AgrC inhibition YFP reporter gene assay, S. aureus group-IV (AH1872)
Format: cell-based
testSettings: read-out: Group-IV IC50, 95% CI; YFP reporter strain, 24 h; value (95% CI)
Positions of bridges follow the written chain, without caps; N, C: chain ends. Non-standard residues stand in square brackets, D forms with d. Residues, ends and D or L forms follow the SMILES beside them. AEEA = NCCOCCOCC(=O)O; Aoc = NCCCCCCCC(=O)O
endpointLabel: IC50 (µM)
Respond numerically; units are µM and should not be typed.

Identify IC50 associated with the molecule CC(=O)N[C@H]1CSC(=O)[C@H](Cc2ccccc2)NC(=O)[C@H](Cc2ccccc2)NC(=O)COCCOCCNC1=O [n7OFF] (Ac-C[AEEA]FF; thioester 1-C)
5.94

Indicate the recorded IC50 value for this molecule: CC(=O)N[C@H]1CSC(=O)[C@H](Cc2ccccc2)NC(=O)[C@H](Cc2ccccc2)NC(=O)CCCCCCCNC1=O [n7FF] (Ac-C[Aoc]FF; thioester 1-C)
0.985

State, in one line, measured IC50 of CC(=O)NC1CSC(=O)C(Cc2ccccc2)NC(=O)C(Cc2ccccc2)NC(=O)CCCCCCCCNC1=O (stereo not shown)
3.49
